Origin of the recorded values: ChEMBL document CHEMBL1201862

test system: RXF 393; test: NCI tumour cell line growth inhibition, 48 h
Counter-ions that a name gives are not always drawn. The source made the active and inactive calls. Rule as the data show it: active = GI50 up to about 1.1 µM and inactive = higher. Peptide text beside a SMILES is read from it. * marks the point of attachment. Cbz = O=C(OCc1ccccc1)*; OBn = c1ccc(CO*)cc1
Outcomes: T for active, F for inactive

• COc1ccc(NC(=S)Nc2cc(C)ccn2)cc1 = F
• CCOC(=O)NC(=O)c1cn(-c2ccc(CCOC(=O)CCCCCCCCC(=O)OCCc3ccc(-n4cc(C(=O)NC(=O)OCC)c(=O)[nH]c4=O)cc3)cc2)c(=O)[nH]c1=O = F
• Cc1cc2c(cc1Cl)SC(NN(C)C)=NS2(=O)=O = F
• COc1c(CC(C)=O)c2ccccc2n1C(C)=O = F
• C=CCSS/C=C/C[S+]([O-])CC=C (stereo not drawn) [AJOENE] = F
• CCOC(=O)Cc1nnc2c(-c3ccccc3)nc3ccccc3n12 = F
• C#Cc1cc(CN(CC(=O)OC(C)(C)C)CC(=O)OC(C)(C)C)nc(CN(CC(=O)OC(C)(C)C)CC(=O)OC(C)(C)C)c1 = F
• O=C(N/N=C/c1ccc(Cl)cc1)c1cc(I)cc(I)c1O = F
• COC(=O)CNC(=O)C(C)NC(=O)C(CC(=O)OCc1ccccc1)NC(=O)OCc1ccccc1 (stereo not drawn) (Cbz-Asp(OBn)-Ala-Gly-OMe; configuration not given here) = F
• N#CC12C(=O)NC(=O)C1(C#N)C1C=CC2CC1 (stereo not drawn) = F
• CN(C)c1ccc2c(SCC(=O)OCC(=O)[C@@]3(O)CC[C@H]4[C@@H]5CCC6=CC(=O)C=C[C@]6(C)[C@H]5C(=O)C[C@@]43C)c3ccc(N(C)C)cc3nc2c1 = F
• O=c1[nH]cc(F)c(=O)[nH]1 [FLUOROURACIL] = F
• COc1ccc(-c2cc(=O)c3ccc(O)cc3o2)c(OC)c1OC = F
• CNC1NC(=O)c2ccccc2N1Cc1ccc(F)cc1 (stereo not drawn) = F
• NC(=O)N/N=C1/CCCC/C1=C\c1ccccc1 = F
• N=C(N)N/N=C(/c1ccccc1)c1ccc(O)cc1O = F
• O=C(O)c1ccc2c(c1C(=O)O)C(=O)OC2(c1ccc(O)cc1)c1ccc(O)cc1 = F
• CCOC(=O)/C=C(/C)Nc1nc2c(c(C(=O)OC)c1C#N)CCCC2 = F
• CCCCCC(=O)n1[nH]c(=O)n(-c2ccc(OC)cc2)c1=O = F
• CCCCCCCCCCN(CCCCCCCCCC)C(=O)COc1c2cc(C(C)(C)C)cc1Cc1cc(C(C)(C)C)cc(c1OCC(=O)N(CCCCCCCCCC)CCCCCCCCCC)Cc1cc(C(C)(C)C)cc(c1OCC(=O)N(CCCCCCCCCC)CCCCCCCCCC)Cc1cc(C(C)(C)C)cc(c1OCC(=O)N(CCCCCCCCCC)CCCCCCCCCC)C2 = F
• Cc1c(NC(=S)Nc2ccc([N+](=O)[O-])cc2)c(=O)n(-c2ccccc2)n1C = F
• COCCOCOC(C)(C)[C@H](CCO)O[Si](c1ccccc1)(c1ccccc1)C(C)(C)C = F
• O=C(CSc1nnc(Cc2ccccc2)o1)Nc1ccccc1 = F
• COc1cc(/C=C2\N=C(c3ccccc3)N(c3nc4cc(C)c(C)cc4s3)C2=O)cc(OC)c1OC = F
• N#Cc1nc(Cc2ccccc2)oc1N = F
• O=[N+]([O-])/C(Cl)=C(/C(Cl)=C(Cl)Cl)N1CCOCC1 = F
• Cc1cc(C)nc(NS(=O)(=O)c2ccc(Nc3c4ccccc4nc4c(C(=O)Nc5ccc(S(=O)(=O)N=C(N)N)cc5)ccc(Cl)c34)cc2)n1 = F
• COc1ccc(C2CCC(Cl)(OC)CC2C=O)cc1 (stereo not drawn) = T
• CCOC(=O)CSc1nnc(C(Sc2nc(-c3ccccc3)c(-c3ccccc3)[nH]2)C(C)C)n1-c1ccccc1 (stereo not drawn) = F
• CC(=O)OC1(C#N)CC2OC1C1C2N1C(=O)OC(C)(C)C (stereo not drawn) = F
• CC1C[C@H](OC(N)=O)C(C)CC1=O (stereo partly drawn) = F
• COC(=O)/C(C#N)=C(\Nc1ccccc1)N1CCCCC1 = F
• O=C1/C(=C/c2ccco2)N=C(c2ccccc2)N1c1cc2cc(Sc3ccccc3)ccc2[nH]1 = F
• O=C1[C@H](c2ccccc2)C2c3ccccc3CCN12 (stereo partly drawn) = F
• COC1(OC)N=C(N)C2(C#N)C(c3ccccc3)NC3=C(CCC3)C12C#N (stereo not drawn) = F
• CC1=NN(c2cccc(Cl)c2)C2(SCC(=O)N2c2nc3ccccc3s2)/C1=C\c1ccccc1 (stereo not drawn) = F
• NCCCNCCCCNCCCN [SPERMINE TETRAHYDROCHLORIDE] = F
• CN(C)c1ccc(/C=c2/sc3nc(=O)c(-c4ccccc4NC(=O)C(F)(F)F)nn3c2=O)cc1 = F

---

Form field: GI50 (one value per entry).
tested on: SR; assay: NCI tumour cell line growth inhibition, 48 h
The source made the active and inactive calls. No stated cut-off is given here; in the data, active = GI50 up to about 1.1 µM and inactive = higher.
Observed Property: GI50

- CSc1cc(Cl)c(C(=O)Nc2ccccc2)cc1S(=O)(=O)n1ccnc1O: > 100 µM (inactive)
- COC(=O)[C@]1(NC(=O)c2ccccc2)C[C@H]1C=O: 28.2 µM (inactive)
- CCCCCCCCCCCC(=O)C1=C(O)CC(O)CC1=O (stereo not given): > 100 µM (inactive)
- CN(C)c1ccc(/C=N/NC(=S)Nc2ccccc2)cc1: > 100 µM (inactive)
- CCC1C(=O)C(O)[C@H]2[C@@H]3C(O)CC4=CC(=O)CC[C@]4(C)[C@H]3CC[C@]12C (stereo not given in full): > 50 µM (inactive)
- CC(=O)Nc1ccc2nc(-c3ccccn3)c(-c3ccccn3)nc2c1: > 100 µM (inactive)
- Nc1nc(Cl)cc(NCCCCCCNc2cc(Cl)nc(N)n2)n1: 42 µM (inactive)
- COc1c2c(c3c(c1CCC(=O)O)OC(C)(C)C=C3)OC(C)(C)C=C2: > 100 µM (inactive)
- C[N+](C)(C)C(C1=CCCC1=O)c1ccccc1 (stereo not given): 15.3 µM (inactive)
- CCCCCCCCCCCC[C@@H](O)[C@H]1CC[C@H]([C@H]2CC[C@H]([C@H](O)CC[C@H](O)CCCCCCCC3=C[C@H](C)OC3=O)O2)O1: 2.03 µM (inactive)

---

# GI50 values compiled below
system: CAKI-1; assay: NCI tumour cell line growth inhibition, 48 h
Counter-ions that a name gives are not always drawn. Active and inactive are the calls of the source. Rule as the data show it: active = GI50 up to about 1.1 µM and inactive = higher.
Observed Property: GI50

* O=C(Nc1nccs1)c1cc(C2=CC=CC([N+](=O)[O-])C=C2)nc(S)n1 (stereo not given) | > 100 µM (inactive)
* NCCCNCCCCNCCCN [SPERMINE TETRAHYDROCHLORIDE] | 5.97 µM (inactive)
* COC(=O)CN1CCN(c2cccc3c2CCCC3)CC1 | > 100 µM (inactive)
* O=S(=O)(O)c1ccc(O)c2ncc(Cl)cc12 | > 100 µM (inactive)
* COc1ccc(CCN2C(=O)CC34C=CC(CC3C2=O)O4)cc1OC (stereo not given) | > 100 µM (inactive)
* Nc1ccccc1CCN1CCN(CCCc2ccccc2)CC1 | 57.3 µM (inactive)
* CCCCN(CCCC)c1ccc(/N=N/c2ccc(S(=O)(=O)O)cc2)cc1 | 20.2 µM (inactive)
* CC(C)(c1cn(Cc2ccccc2)c2ccccc12)c1cn(Cc2ccccc2)c2ccccc12 | > 100 µM (inactive)
* COc1ccc(OC)c2c1C1CCC(=O)N1CN2C(C)=O (stereo not given) | > 100 µM (inactive)
* Cc1n[nH]c(=O)n1/N=C/c1ccc([N+](=O)[O-])cc1 | 30.1 µM (inactive)
* COC(=O)CC[C@@H](C)[C@H]1CC[C@H]2[C@@H]3CC[C@@H]4C[C@H](O)CC[C@]4(C)[C@H]3CC[C@]12C | 17.9 µM (inactive)
* CCC1C(=O)C(O)[C@H]2[C@@H]3C(O)CC4=CC(=O)CC[C@]4(C)[C@H]3CC[C@]12C (stereo not given in full) | > 50 µM (inactive)
* Nc1nc(Cl)cc(NCCCCCCNc2cc(Cl)nc(N)n2)n1 | 27.7 µM (inactive)
* O=c1[nH]ncc2[nH]c3c(c12)CCc1ccccc1-3 | 21.5 µM (inactive)
* N#CCC(=O)c1cc(OCc2cc(OCc3ccc(Br)cc3)cc(OCc3ccc(Br)cc3)c2)cc(OCc2cc(OCc3ccc(Br)cc3)cc(OCc3ccc(Br)cc3)c2)c1 | > 100 µM (inactive)
* COc1cc(/C=C2\N=C(c3ccccc3)N(c3nc4cc(C)c(C)cc4s3)C2=O)cc(OC)c1OC | 35.1 µM (inactive)
* O=C(c1ccccc1)c1ccc2c(c1)nc1n2C(c2c(Cl)cccc2Cl)SC1 (stereo not given) | 70.6 µM (inactive)
* CSc1ncc2c(n1)-c1ccccc1OC2N1CCCC1 (stereo not given) | 31 µM (inactive)
* O=C1/C(=C/c2ccco2)N=C(c2ccccc2)N1c1cc2cc(Sc3ccccc3)ccc2[nH]1 | 9.46 µM (inactive)
* CCOC(=O)C#Cc1ccc([N+](=O)[O-])cc1 | 1.87 µM (inactive)
